PROCEDURE_DETAILS: Part A (SAD): plasma PK of Formula (IIa) and its metabolites after a single oral dose of Formula (IIa), fed or fasted
Assay type: in vivo, human
STATED_CONDITIONS: human, in vivo, po, 800 mg, single oral 800 mg Formula (IIa), fed, plasma, N=1; read-out: AUC0-24
VALUE_TYPE: AUC(0-t)

1) CO[C@H]1C(OP(=O)(OC[C@H]2O[C@@H](n3cnc4c(N)ncnc43)CC2O)SCOC(=O)OC(C)C)[C@@H](CO)O[C@H]1n1ccc(=O)[nH]c1=O (stereo partly shown)    0.96 ng·h/mL

###

PROCEDURE_DETAILS: Part A (SAD): plasma PK of Formula (IIa) and its metabolites after a single oral dose of Formula (IIa), fed or fasted
Assay type: in vivo, human
STATED_CONDITIONS: human, in vivo; single oral 400 mg Formula (IIa), fed, plasma, N=1; read-out: t1/2 (converted)
VALUE_TYPE: half-life (h)

1. CO[C@H]1C(OP(=O)(OC[C@H]2O[C@@H](n3cnc4c(N)ncnc43)CC2O)SCOC(=O)OC(C)C)[C@@H](CO)O[C@H]1n1ccc(=O)[nH]c1=O (stereo partly shown) [Formula (IIa)]    1.16

###

PROCEDURE_DETAILS: Part B (MAD): plasma PK of Formula (IIa) and its metabolites after once-daily oral Formula (IIa) for 7 days, fasted
Format: in vivo, human
STATED_CONDITIONS: human, in vivo, po, 200 mg, 200 mg Formula (IIa) QD oral, fasted, Day 1, plasma, arithmetic mean (CV %); read-out: Cmax
VALUE_TYPE: Cmax (ng/mL)

1) CO[C@H]1C(OP(=O)(OC[C@H]2O[C@@H](n3cnc4c(N)ncnc43)CC2O)SCOC(=O)OC(C)C)[C@@H](CO)O[C@H]1n1ccc(=O)[nH]c1=O (stereo partly shown)    0.531

###

PROCEDURE_DETAILS: Part B (MAD): plasma PK of Formula (IIa) and its metabolites after once-daily oral Formula (IIa) for 7 days, fasted
Type: in vivo, human
STATED_CONDITIONS: human, in vivo, po, 900 mg, 900 mg Formula (IIa) QD oral, fasted, Day 7, plasma, arithmetic mean (CV %); read-out: Cmax
VALUE_TYPE: Cmax (ng/mL)

1) CO[C@H]1C(OP(=O)(OC[C@H]2O[C@@H](n3cnc4c(N)ncnc43)CC2O)SCOC(=O)OC(C)C)[C@@H](CO)O[C@H]1n1ccc(=O)[nH]c1=O (stereo partly shown)    6.66

###

PROCEDURE_DETAILS: Part A (SAD): plasma PK of Formula (IIa) and its metabolites after a single oral dose of Formula (IIa), fed or fasted
Format: in vivo, human
STATED_CONDITIONS: human, in vivo; single oral 400 mg Formula (IIa), fed, plasma, N=1
Procedure: The study was a Phase 1, two-part, first-in-human study of single (Part A) and multiple (Part B) ascending doses (SAD and MAD) of Formula (IIa) at doses of 100-900 mg given as a monotherapy for up to 7 days. […] For both Parts A and B, the Safety Review Committee (SRC) determined whether dose escalation occurred after review of all safety data and any available PK/PD data. […] All plasma PK calculations were performed using actual time points calculated relative to the time of last drug administration. […]
VALUE_TYPE: AUC(0-inf) (ng·h/mL)

1. CO[C@H]1C(OP(=O)(OC[C@H]2O[C@@H](n3cnc4c(N)ncnc43)CC2O)SCOC(=O)OC(C)C)[C@@H](CO)O[C@H]1n1ccc(=O)[nH]c1=O (stereo partly shown) [Formula (IIa)]    1.43

###

PROCEDURE_DETAILS: Part B (MAD): plasma PK of Formula (IIa) and its metabolites after once-daily oral Formula (IIa) for 7 days, fasted
Assay type: in vivo, human
STATED_CONDITIONS: human, in vivo, po, 900 mg, 900 mg Formula (IIa) QD oral, fasted, Day 7, plasma, arithmetic mean (CV %); read-out: t1/2 (converted)
VALUE_TYPE: half-life (h)

1. CO[C@H]1C(OP(=O)(OC[C@H]2O[C@@H](n3cnc4c(N)ncnc43)CC2O)SCOC(=O)OC(C)C)[C@@H](CO)O[C@H]1n1ccc(=O)[nH]c1=O (stereo partly shown) [Formula (IIa)]    1.07

###

PROCEDURE_DETAILS: Part B (MAD): plasma PK of Formula (IIa) and its metabolites after once-daily oral Formula (IIa) for 7 days, fasted
Assay type: in vivo, human
STATED_CONDITIONS: human, in vivo, Day 1, 200-900 mg Formula (IIa) QD; read-out: mean Cmax range across dose levels
Experimental: Part B was a blinded, randomized, placebo-controlled MAD study consisting of four cohorts of eight subjects randomized 6:2 to receive Formula (IIa) or placebo. […] The starting dose was determined by the SRC based on review of all safety and any available PK/PD data from Part A. All subjects were dosed in the fasted state with Formula (IIa) daily, from Day 1 until Day 8. […] All plasma PK calculations were performed using actual time points calculated relative to the time of last drug administration. […]
VALUE_TYPE: Cmax

1) CO[C@H]1C(OP(=O)(OC[C@H]2O[C@@H](n3cnc4c(N)ncnc43)CC2O)SCOC(=O)OC(C)C)[C@@H](CO)O[C@H]1n1ccc(=O)[nH]c1=O (stereo partly shown)    0.531 to 3.75 ng/mL

###

PROCEDURE_DETAILS: Part A (SAD): plasma PK of Formula (IIa) and its metabolites after a single oral dose of Formula (IIa), fed or fasted
Type: in vivo, human
STATED_CONDITIONS: human, in vivo, po, 800 mg, single oral 800 mg Formula (IIa), fed, plasma, N=1; read-out: AUC0-t
VALUE_TYPE: AUC(0-t)

1. CO[C@H]1C(OP(=O)(OC[C@H]2O[C@@H](n3cnc4c(N)ncnc43)CC2O)SCOC(=O)OC(C)C)[C@@H](CO)O[C@H]1n1ccc(=O)[nH]c1=O (stereo partly shown)    0.9 ng·h/mL

###

PROCEDURE_DETAILS: Part A (SAD): plasma PK of Formula (IIa) and its metabolites after a single oral dose of Formula (IIa), fed or fasted
Assay type: in vivo, human
STATED_CONDITIONS: human, in vivo, po, 800 mg, single oral 800 mg Formula (IIa), fasted, plasma, N=1
VALUE_TYPE: Cmax (ng/mL)

1. CO[C@H]1C(OP(=O)(OC[C@H]2O[C@@H](n3cnc4c(N)ncnc43)CC2O)SCOC(=O)OC(C)C)[C@@H](CO)O[C@H]1n1ccc(=O)[nH]c1=O (stereo partly shown) [Formula (IIa)]    0.734

###

PROCEDURE_DETAILS: Part A (SAD): plasma PK of Formula (IIa) and its metabolites after a single oral dose of Formula (IIa), fed or fasted
Format: in vivo, human
STATED_CONDITIONS: human, in vivo, po, 800 mg, single oral 800 mg Formula (IIa), fed, plasma, N=1; read-out: Tmax
VALUE_TYPE: Tmax

1. CO[C@H]1C(OP(=O)(OC[C@H]2O[C@@H](n3cnc4c(N)ncnc43)CC2O)SCOC(=O)OC(C)C)[C@@H](CO)O[C@H]1n1ccc(=O)[nH]c1=O (stereo partly shown)    1.5 h

###

PROCEDURE_DETAILS: Part A (SAD): plasma PK of Formula (IIa) and its metabolites after a single oral dose of Formula (IIa), fed or fasted
Assay type: in vivo, human
STATED_CONDITIONS: human, in vivo, po, 800 mg, single oral 800 mg Formula (IIa), fasted, plasma, N=1; read-out: Tmax
VALUE_TYPE: Tmax (h)

1. CO[C@H]1C(OP(=O)(OC[C@H]2O[C@@H](n3cnc4c(N)ncnc43)CC2O)SCOC(=O)OC(C)C)[C@@H](CO)O[C@H]1n1ccc(=O)[nH]c1=O (stereo partly shown)    1

###

PROCEDURE_DETAILS: Part A (SAD): plasma PK of Formula (IIa) and its metabolites after a single oral dose of Formula (IIa), fed or fasted
Type: in vivo, human
STATED_CONDITIONS: human, in vivo, po, 400 mg, single oral 400 mg Formula (IIa), fed, plasma, N=1; read-out: AUC0-24
VALUE_TYPE: AUC(0-t) (ng·h/mL)

1. CO[C@H]1C(OP(=O)(OC[C@H]2O[C@@H](n3cnc4c(N)ncnc43)CC2O)SCOC(=O)OC(C)C)[C@@H](CO)O[C@H]1n1ccc(=O)[nH]c1=O (stereo partly shown) [Formula (IIa)]    1.13

###

PROCEDURE_DETAILS: Part A (SAD): plasma PK of Formula (IIa) and its metabolites after a single oral dose of Formula (IIa), fed or fasted
Assay type: in vivo, human
STATED_CONDITIONS: human, in vivo, po, 200 mg, single oral 200 mg Formula (IIa), fed, plasma, N=1; read-out: AUC0-24
VALUE_TYPE: AUC(0-t) (ng·h/mL)

1. CO[C@H]1C(OP(=O)(OC[C@H]2O[C@@H](n3cnc4c(N)ncnc43)CC2O)SCOC(=O)OC(C)C)[C@@H](CO)O[C@H]1n1ccc(=O)[nH]c1=O (stereo partly shown) [Formula (IIa)]    0.131
